The reported numbers originate from the supplement of paper PMC8671470.

System: HL-60
Test: cell viability (% survival relative to DMSO control); higher = less cytotoxic
Conditions: 0.1 µM; 72 h; co-treatment: pictilisib 100 nM
recorded_metric: cell viability (%)
Give bare numbers, in %.

Observe how each entry below is paired with its result.
>>> df
                                   molecule  recorded_metric  units_of_measure  recorded_result
0  CN(C)c1nc(O)c2[nH]cnc2n1 [2-Dimethylamino-6-hydroxypurine]   cell viability                 %              102
1  CC(Cc1ccc(O)c(O)c1)C(C)Cc1ccc(O)c(O)c1 (centres undefined)   cell viability                 %               94
2  O=C(COc1ccc(C(=O)c2ccccc2)cc1)NC1CCN(Cc2ccccc2)CC1   cell viability                 %             97.7
3  CC12CCC(O)CC1CCC1C2CCC2(C)C(C3=CC(=O)OC3)CCC12O (centres undefined)   cell viability                 %              102
4   O=C(O)CCc1ccc(NCc2cccc(Oc3ccccc3)c2)cc1   cell viability                 %             90.9

Please go through the list and note cell viability for each molecule.
1. C1CCc2nnc(C34CC5CC(CC(C5)C3)C4)n2CC1
2. C=CCc1ccc2c(c1O)C(=O)c1ccccc1C2=O
3. CC(C(=O)O)C(=O)O [methylmalonate]
4. O=C(O)C(Cl)Cl [Dichloroacetate]

96.6
101
87.7
91
